Entries annotated with measured log10 of koff
Target: T1, human galectin-10-His (human)
T1 construct: The last M of the tag may be Met1 of galectin-10; also called humanGal10-His; hGal10
T1 chain: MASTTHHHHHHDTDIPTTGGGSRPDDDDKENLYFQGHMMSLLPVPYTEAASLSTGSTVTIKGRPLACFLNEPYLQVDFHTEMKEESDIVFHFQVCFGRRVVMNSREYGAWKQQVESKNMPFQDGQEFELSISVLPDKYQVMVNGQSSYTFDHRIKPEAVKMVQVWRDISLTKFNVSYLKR
Test: SPR Biacore T3000, mouse IgG1 captured
QUANTITY: log10 of koff (log10 of the value in s⁻¹)

BINDER: 11F02 mouse IgG1 (antibody, V domains shown, VH and VL cloned in frame with mouse IgG1 constant domains; also called 11F02 mIgG1) VH: ELQVVESGGGLVQPGGSLRLSCAASGFTFSTNYMNWVRQAPGKGLEWVSGITSHGARTYYADSVKGRFTISRDNSKNTLYLQMNSLKPEDTALYYCARTDHASLDAWGQGTLVTVSS VL: QTVVTQEPSLSVSPGGTVTLTCGLSSGSVTSSNYPGWYQQKPGQAPRTLIYNTNSRYSGVPNRFSGSISGNKAALTITGAQPEDEADYYCALYMGSSSYNTVFGGGTHLTVL
RESULT NUMBER: -2.31

BINDER: 8H11 mouse IgG1 (antibody, V domains shown, VH and VL cloned in frame with mouse IgG1 constant domains; also called 8H11 mIgG1) VH: ELQLVESGGGLVQPGGSLRLSCAASGFTFSTNYMNWVRQAPGKGLEWVSGITSGGGRTYYADSVKGRFTISRDNAKNTLYLQMNSLKPEDTALYYCARTDHAWLDAWGQGTLVTVSS VL: QAGLTQPPSVSGTLGKTVTISCAGTSSDVGYGNYVSWYQQLPGTAPKLLIYAVSTRASGIPDRFSGSKSGNTASLTISGLLSEDEADYYCASYRSSNNYVFGGGTKLTVL
RESULT NUMBER: -2.71

BINDER: 10B02 mouse IgG1 (antibody, V domains shown, VH and VL cloned in frame with mouse IgG1 constant domains; also called 10B02 mIgG1) VH: QVQLVESGGGLVQPGGSLRVSCAASGFTFSYHYMNWVRQAPGKGLEWVSGISAGGGRTYYADSVKGRFTISRDNAKNTLYLQMNSLNAEDTALYYCARVHGITNDYWGQGTQVTVSS VL: QSALTQPPSVSGSPGKTVTISCAGTSSDVGYGNYVSWYQQLPGMAPKLLIYEVNKRASGITDRFSGSKSGNTAFLTISGLQSEDEADYYCASYRNSNNWVFGGGTHLTVL
RESULT NUMBER: -2.69

BINDER: 1D11 mouse IgG1 (antibody, V domains shown, Llama VH and VL on mouse IgG1 heavy chain constant domains (CH1-CH2-CH3) and mouse lambda light chain constant domain; also called 1D011; 1D11 mIgG1) VH: QVQLVESGGGLVQPGGSLRLSCAASGFTFDDYAMSWVRQAPGKGLEWVSGISWNGGSTYYAESMKGRFTISRDNAKNTLYLQMNSLKSEDTAVYYCAKDRNLGYRLGYPYDYWGQGTQVTVSS VL: QSVLTQPPSVSGSPGETVTISCAGTSSDVGYGNYVSWYQQLPGMAPRLLIYEVNKRASGITDRFSGSKSGNTASLTISGLQSEDEGDYYCASYRSSNNAVFGGGTHLTVL
RESULT NUMBER: -2.03

BINDER: 11F12 mouse IgG1 (antibody, V domains shown, VH and VL cloned in frame with mouse IgG1 constant domains; also called 11F12 mIgG1) VH: QVQLQESGGGLVQPGGSLRLSCAASGFTFSTNYMNWVRQAPGKGLEWVSGITSGGGRTYYADSVKGRFTISRDNAKNTLYLQMNSLKPEDTALYYCARTDHAWLDAWGQGTLVTVSS VL: HSAVTQPPSVSGTLGKTVTISCAGTSSDVGYGNYVSWYQHLPGTAPKLLIYAVSTRASGVPDRFSGSKSGNTASLTISGLQSEDEGDYYCASYSVRNNVVFGGGTRLTVL
RESULT NUMBER: -2.65

BINDER: 10A06 mouse IgG1 (antibody, V domains shown, VH and VL cloned in frame with mouse IgG1 constant domains; also called 10A06 mIgG1) VH: QVQLVESGGGLVQPGGSLRLSCAASGFTFGNYDMSWVRQAPGKGPEWVSDINSGGGSTYYADSVKGRFTISRDNAKNSLLLQMNSLKPEDTAVYYCATGYTGYYYWGQGTQVTVSS VL: QTVVTQEPSLSVSPGGTVTLTCGLSSGSVTSSNYPAWYQQTPGQAPRALIYSINSRHSGVPDRFSGSISGNKAALTITGAQAEDEADYYCTLYMGTGSNNVVFGGGTHLTVL
RESULT NUMBER: -2.00

BINDER: 7B07 mouse IgG1 (antibody, V domains shown, VH and VL cloned in frame with mouse IgG1 constant domains; also called 7B07 mIgG1) VH: QVQLVESGGGLVQPGGSLRLSCAASGFTFRSYDMSWVRQAPGKGPEWVSAIKNGGGITYYADSVKGRFTISRDNAKNTLYLQMNSLKPEDTAVYYCATTHGIGTLGFGSWGQGTQVTVSS VL: SYELTQSASVSVALTQTAKITCDGNNIGSKSAQWYQQKPGQAPALVIYADEYRPEGIPERFSGSNSGNTATLIISGAQAEDEADYYCQVWDGSAAVFGRGTHLTVL
RESULT NUMBER: -2.41

BINDER: 10D02 mouse IgG1 (antibody, V domains shown, VH and VL cloned in frame with mouse IgG1 constant domains; also called 10D02 mIgG1) VH: EVQLVESGGGLVQPGGSLRVSCAASGFTFSSYYMSWVRQAPGKGLEWVSGIVTGGGRTHYTDSVKGRFTITRDNAKNTLYLQMNSLRPEDTALYYCARVNGVVTNYDYWGQGTQVTVSS VL: QAVLTQPPSVSGSPGKTVTISCAGTSSDVGYGNYVSWYQQLPGMAPKLLIYDVNKRASGITDRFSGSKSGNTASLTISGLQSEDEADYFCASYRSPNNVVFGQGTHLTVL
RESULT NUMBER: -3.06
